- method_description: Probe fluorescence ratio response to oleate:BSA complex, relative to ADIFAB2 (ΔR/ΔRAD2)
- Format: binding
- experimental_conditions: fluorescence response (R-Ro) relative to ADIFAB2; oleate
The label condition met is reserved for ΔR/ΔRAD2 OA strictly under 0.7; condition not met covers values equal to or above it.

See these solved cases before continuing.
# molecule, class_label
data = [
    ("L2P11B4: acrylodan-labeled rI-FABP-L72A mutein: M18 V, G31 A, F55 WT, A73 W (protein, UniProt P02693 2-132, looked up, variant M18V G31A L72A A73W, acrylodan label, acrylodan-labeled rI-FABP-L72A mutein: M18 V, G31 A, F55 WT, A73 W) Fatty acid-binding protein, …: AFDGTWKVDRNENYEKFVEKMGINVVKRKLAAHDNLKLTITQEGNKFTVKESSNFRNIDVVFELGVDFAYSAWDGTELTGTWTMEGNKLVGKFKRVDNGKELIAVREISGNELIQTYTYEGVEAKRIFKKE", "condition not met"),
    ("L1P8 D4: acrylodan-labeled rI-FABP mutein: Y14 M, L38 wt, L72 M, Y117 A (protein, UniProt P02693 2-132, looked up, variant Y14M L72M Y117A, acrylodan label, acrylodan-labeled rI-FABP mutein: Y14 M, L38 wt, L72 M, Y117 A) Fatty acid-binding protein, …: AFDGTWKVDRNENMEKFMEKMGINVVKRKLGAHDNLKLTITQEGNKFTVKESSNFRNIDVVFELGVDFAYSMADGTELTGTWTMEGNKLVGKFKRVDNGKELIAVREISGNELIQTATYEGVEAKRIFKKE", "condition not met"),
    ("L1P8 H2: acrylodan-labeled rI-FABP mutein: Y14 M, L38 M, L72 W, Y117 wt (protein, UniProt P02693 2-132, looked up, variant Y14M L38M L72W, acrylodan label, acrylodan-labeled rI-FABP mutein: Y14 M, L38 M, L72 W, Y117 wt) Fatty acid-binding protein, …: AFDGTWKVDRNENMEKFMEKMGINVVKRKLGAHDNLKMTITQEGNKFTVKESSNFRNIDVVFELGVDFAYSWADGTELTGTWTMEGNKLVGKFKRVDNGKELIAVREISGNELIQTYTYEGVEAKRIFKKE", "condition met"),
    ("L78F, L72A: acrylodan-labeled rI-FABP mutein L78F, L72A (protein) AFDGTWKVDRNENYEKFMEKMGINVVKRKLGAHDNLKLTITQEGNKFTVKESSNFRNIDVVFELGVDFAYSAADGTEFTGTWTMEGNKLVGKFKRVDNGKELIAVREISGNELIQTYTYEGVEAKRIFKKE", "condition not met"),
]

Query molecule follows.
// query is_below(ΔR/ΔRAD2 OA, 0.7) for L1P12 F12: acrylodan-labeled rI-FABP mutein: Y14 L, L38 wt, L72 G, Y117 V (protein, UniProt P02693 2-132, looked up, variant Y14L L72G Y117V, acrylodan label, acrylodan-labeled rI-FABP mutein: Y14 L, L38 wt, L72 G, Y117 V) Fatty acid-binding protein, …: AFDGTWKVDRNENLEKFMEKMGINVVKRKLGAHDNLKLTITQEGNKFTVKESSNFRNIDVVFELGVDFAYSGADGTELTGTWTMEGNKLVGKFKRVDNGKELIAVREISGNELIQTVTYEGVEAKRIFKKE ?
// result condition met
